test system: MCF7 breast; assay: NCI tumour cell line growth inhibition, 48 h
Overview of recorded TGI for various molecules

[
  {
    "molecule": "O=C1CCN(CCC(F)(F)C(F)(F)C(F)(F)C(F)(F)C(F)(F)C(F)(F)F)C(=S)N1CCC(F)(F)C(F)(F)C(F)(F)C(F)(F)C(F)(F)C(F)(F)F",
    "unitsText": "µM",
    "signQualifier": ">",
    "TGI": 100
  },
  {
    "molecule": "Nc1nc(CCl)nc(N2CCOCC2)n1",
    "unitsText": "µM",
    "signQualifier": ">",
    "TGI": 100
  },
  {
    "molecule": "O=C(O)c1c[nH]c2cc(OCc3ccccc3)ccc2c1=O",
    "unitsText": "µM",
    "signQualifier": "=",
    "TGI": 39.8
  },
  {
    "molecule": "COc1ccc(NC=O)c(C(=O)CCNC(C)=O)c1",
    "unitsText": "µM",
    "signQualifier": ">",
    "TGI": 100
  },
  {
    "molecule": "Cc1cnc(NC2CCOCC2)nc1-n1cnc(C(=O)N[C@H](CN)c2cc(F)cc(Cl)c2)c1",
    "unitsText": "µM",
    "signQualifier": "=",
    "TGI": 15.4
  },
  {
    "molecule": "CN(C)c1ccc(N=Nc2ccc(Br)cn2)c(O)c1",
    "unitsText": "µM",
    "signQualifier": ">",
    "TGI": 100
  },
  {
    "molecule": "O=C(O)c1ccccc1/C=C1\\Cc2ccccc2C1=O",
    "unitsText": "µM",
    "signQualifier": ">",
    "TGI": 100
  },
  {
    "molecule": "O=C(O)C1(Cc2ccccc2)Cc2ccccc2C1",
    "unitsText": "µM",
    "signQualifier": ">",
    "TGI": 100
  },
  {
    "molecule": "C=Cc1ccccc1C1C(C(=O)OCC)=C(C)N=C2OC(C(=O)OC)C(=O)N21 (stereo not drawn)",
    "unitsText": "µM",
    "signQualifier": ">",
    "TGI": 100
  },
  {
    "molecule": "c1ccc(-c2nc([P+](c3ccccc3)(c3ccccc3)c3ccccc3)c(N3CCOCC3)o2)cc1",
    "unitsText": "µM",
    "signQualifier": "=",
    "TGI": 4.15
  },
  {
    "molecule": "c1ccc([P+](c2ccccc2)(c2ccccc2)c2ccc([P+](c3ccccc3)(c3ccccc3)c3ccccc3)c3ccccc23)cc1",
    "unitsText": "µM",
    "signQualifier": ">",
    "TGI": 100
  },
  {
    "molecule": "CC(=O)O[C@H](C[C@@H](C)[C@H]1C(=O)[C@H](O)[C@@]2(C)C3CC[C@H]4C(C)(C)[C@@H](OC5OCC(O)C(O)C5O)CC[C@@]45C[C@@]35CC[C@]12C)[C@@H]1OC1(C)C (stereo partly drawn)",
    "unitsText": "µM",
    "signQualifier": "=",
    "TGI": 34.8
  },
  {
    "molecule": "O=c1[nH]c2c3ccncc3cc(-c3cccc(Cl)c3)c2c2cnccc12",
    "unitsText": "µM",
    "signQualifier": ">",
    "TGI": 100
  },
  {
    "molecule": "N=C(N)c1ccc(-c2ccc(-c3cccs3)o2)cc1",
    "unitsText": "µM",
    "signQualifier": "=",
    "TGI": 3.29
  },
  {
    "molecule": "CN1CCN(Cc2ccc(NC(=O)c3cncc(C#Cc4cnc5ccc(Cl)nn45)c3)cc2C(F)(F)F)CC1",
    "unitsText": "µM",
    "signQualifier": "=",
    "TGI": 1.92
  },
  {
    "molecule": "Cc1nn(CN2CCN(C)CC2)c(=S)n1/N=C/c1ccc(-c2ccc(Cl)cc2Cl)o1",
    "unitsText": "µM",
    "signQualifier": ">",
    "TGI": 100
  },
  {
    "molecule": "CC(=O)O[C@H]1C(=O)[C@@]2(C)[C@H]([C@H](OC(=O)C3CCCCC3)[C@]3(O)C[C@H](OC(=O)[C@H](O)[C@@H](NC(=O)OC(C)(C)C)c4ccccc4)C(C)=C1C3(C)C)[C@]1(OC(C)=O)CO[C@@H]1C[C@@H]2O",
    "unitsText": "µM",
    "signQualifier": "=",
    "TGI": 0.0879
  },
  {
    "molecule": "C/C(=N\\NC(=S)N1CCN(c2ccccn2)CC1)c1cccc(C)n1",
    "unitsText": "µM",
    "signQualifier": "=",
    "TGI": 12.4
  }
]
